B1: library; numbered along this chain (parent)
chain: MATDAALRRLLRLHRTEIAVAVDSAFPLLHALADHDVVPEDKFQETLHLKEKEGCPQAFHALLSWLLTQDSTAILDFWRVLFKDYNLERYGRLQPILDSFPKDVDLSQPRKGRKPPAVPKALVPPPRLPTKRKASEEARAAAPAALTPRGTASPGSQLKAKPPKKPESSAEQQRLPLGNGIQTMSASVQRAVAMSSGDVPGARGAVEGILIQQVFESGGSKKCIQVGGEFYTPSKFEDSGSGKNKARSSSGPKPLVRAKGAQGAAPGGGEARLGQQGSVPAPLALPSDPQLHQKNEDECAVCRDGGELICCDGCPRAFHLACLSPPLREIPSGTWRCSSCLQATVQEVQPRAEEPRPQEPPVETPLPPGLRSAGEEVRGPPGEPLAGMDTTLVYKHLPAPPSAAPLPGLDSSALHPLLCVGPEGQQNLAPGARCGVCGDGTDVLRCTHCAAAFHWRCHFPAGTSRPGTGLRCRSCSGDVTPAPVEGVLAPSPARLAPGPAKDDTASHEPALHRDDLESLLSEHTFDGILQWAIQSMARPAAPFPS

variants of: B1; test: AIRE transcriptional activation functional score (insulin promoter-GFP; nonsense median 0, synonymous median 1) (normalised score); higher = higher AIRE activity (more reporter activation); settings: with insulin promoter-GFP reporter in HEK293
The entries below come with measured AIRE transcriptional activation functional score values attached.
The answer should be written as a number, with no unit following it.

Observe how each entry below is paired with its result.
| changes | recorded.measurement |
| --- | --- |
| C314W | 0.709 |
| S464D | 0.7 |
| L385N | 0.689 |

Entry "A271Q" has what AIRE transcriptional activation functional score? 0.693
